Entry source: ChEMBL document CHEMBL3588845

Test system: Plasmodium falciparum
procedure_summary: Antiparasite activity against Plasmodium falciparum D6 assessed as growth inhibition incubated for 72 hrs by SYBR green fluorescence assay
Assay type: functional, organism-based
condition_details: D6, 72 h
test_readout: EC50 (nM)
Respond with the bare value in nM.

Supply measured EC50 of Fc1cccc(COc2ccc(Nc3cnnc4ccc(-c5cccc(N6CCOCC6)c5)cc34)cc2Cl)c1 in your reply.
540

Supply measured EC50 of CN1CCN(S(=O)(=O)c2ccc(-c3ccc4ncc(C#N)c(Nc5ccc(OCc6ccccc6)c(Cl)c5)c4c3)cc2)CC1 in your reply.
210

Supply measured EC50 of CN1CCN(S(=O)(=O)c2ccc(-c3ccc4c(Nc5ccc(OCc6cccc(F)c6)c(Cl)c5)cnnc4c3)cc2)CC1 in your reply.
14

Supply measured EC50 of Fc1cccc(COc2ccc(Nc3ccnc4cc(-c5cccc(N6CCOCC6)c5)ccc34)cc2Cl)c1 in your reply.
61

====

Test system: Plasmodium falciparum
procedure_summary: Antiparasite activity against Plasmodium falciparum D6 assessed as growth inhibition incubated for 72 hrs by SYBR green fluorescence assay
Format: functional, organism-based
condition_details: D6, 72 h
test_readout: log10 EC50 (log10 of the value in nM)
Log scale reminder: EC50 in nM, then log10 taken.

Consider the reported log10 EC50 for these compounds:
smiles_notation=CN1CCCN(S(=O)(=O)c2ccc(-c3ccc4nccc(Nc5ccc(OCc6cccc(F)c6)c(Cl)c5)c4c3)cc2)CC1 tested_system="Plasmodium falciparum" numeric_value=1.93
smiles_notation=CN1CCN(S(=O)(=O)c2ccc(-c3ccc4cnnc(Nc5ccc(OCc6cccc(F)c6)c(Cl)c5)c4c3)cc2)CC1 tested_system="Plasmodium falciparum" numeric_value=2.11
smiles_notation=Fc1cccc(COc2ccc(Nc3cnnc4cc(-c5cccc(N6CCOCC6)c5)ccc34)cc2Cl)c1 tested_system="Plasmodium falciparum" numeric_value=2.30
smiles_notation=O=S(=O)(c1ccc(-c2ccc3c(Nc4ccc(OCc5ccccc5)c(Cl)c4)cnnc3c2)cc1)N1CCOCC1 tested_system="Plasmodium falciparum" numeric_value=2.18
smiles_notation=CN1CCCN(S(=O)(=O)c2ccc(-c3ccc4c(Nc5ccc(OCc6cccc(F)c6)c(Cl)c5)cnnc4c3)cc2)CC1 tested_system="Plasmodium falciparum" numeric_value=0.48
smiles_notation=CN1CCCN(S(=O)(=O)c2ccc(-c3ccc4cnnc(Nc5ccc(OCc6cccc(F)c6)c(Cl)c5)c4c3)cc2)CC1 tested_system="Plasmodium falciparum" numeric_value=1.97

Next:
Supply measured log10 EC50 of CN1CCN(S(=O)(=O)c2ccc(-c3ccc4ncc(C#N)c(Nc5ccc(OCc6cccc(F)c6)c(Cl)c5)c4c3)cc2)CC1 in your reply.
1.91

====

Tested on: Leishmania major
procedure_summary: Antiparasite activity against luciferase-expressing Leishmania major amastigotes isolated from infected in mouse RAW264.7 cells assessed as growth inhibition incubated for 96 hrs by luciferase reporter gene assay
Type: functional, organism-based
condition_details: RAW264.7, 96 h
Collected pEC50 values appear next to each entry.
In plain terms, pEC50 is the concentration in mol/L turned into minus its base-10 logarithm.

Consider the reported pEC50 for these compounds:
smiles_notation=Fc1cccc(COc2ccc(Nc3ccnc4cc(-c5cccc(N6CCOCC6)c5)ccc34)cc2Cl)c1 tested_system="Leishmania major" numeric_value=5.43
smiles_notation=CN1CCCN(S(=O)(=O)c2ccc(-c3ccc4ncc(C#N)c(Nc5ccc(OCc6ccccc6)c(Cl)c5)c4c3)cc2)CC1 tested_system="Leishmania major" numeric_value=5.64
smiles_notation=CN1CCN(S(=O)(=O)c2ccc(-c3ccc4nccc(Nc5ccc(OCc6cccc(F)c6)c(Cl)c5)c4c3)cc2)CC1 tested_system="Leishmania major" numeric_value=5.70
smiles_notation=CN1CCN(S(=O)(=O)c2ccc(-c3ccc4ncnc(Nc5ccc(OCc6cccc(F)c6)c(Cl)c5)c4c3)cc2)CC1 tested_system="Leishmania major" numeric_value=5.80
smiles_notation=CN1CCCN(S(=O)(=O)c2ccc(-c3ccc4nccc(Nc5ccc(OCc6cccc(F)c6)c(Cl)c5)c4c3)cc2)CC1 tested_system="Leishmania major" numeric_value=5.64

Supply measured pEC50 of O=S(=O)(c1ccc(-c2ccc3nccc(Nc4ccc(OCc5ccccc5)c(Cl)c4)c3c2)cc1)N1CCOCC1 in your reply.
5.47

Supply measured pEC50 of CN1CCN(S(=O)(=O)c2ccc(-c3ccc4c(Nc5ccc(OCc6cccc(F)c6)c(Cl)c5)ccnc4c3)cc2)CC1 in your reply.
5.80

Supply measured pEC50 of Fc1cccc(COc2ccc(Nc3nncc4cc(-c5cccc(N6CCOCC6)c5)ccc34)cc2Cl)c1 in your reply.
5.66

Supply measured pEC50 of Fc1cccc(COc2ccc(Nc3nncc4ccc(-c5cccc(N6CCOCC6)c5)cc34)cc2Cl)c1 in your reply.
5.77

Supply measured pEC50 of CN1CCCN(S(=O)(=O)c2ccc(-c3ccc4c(Nc5ccc(OCc6cccc(F)c6)c(Cl)c5)cnnc4c3)cc2)CC1 in your reply.
6.62

Supply measured pEC50 of CN1CCN(S(=O)(=O)c2ccc(-c3ccc4c(Nc5ccc(OCc6cccc(F)c6)c(Cl)c5)cnnc4c3)cc2)CC1 in your reply.
5.70
